Solubility in cyclohexanone values by entry
assay explanation: Solubility test in cyclohexanone
test context: saturation solubility at room temperature, liquid chromatography, about 3 days
readout name: Solubility in cyclohexanone (% by mass)

• Cc1cc(C2(c3cc(C)c(OCC4CO4)c(C)c3)C3CC4CC(C3)CC2C4)cc(C)c1OCC1CO1 (stereo not shown) = 32
• Cc1cc(C23CC4CC(C2)CC(c2ccc(OCC5CO5)c(C)c2)(C4)C3)ccc1OCC1CO1 (stereo not shown) = 33
• Cc1cc(C23CC4CC(C2)CC(c2cc(C)c(OCC5CO5)c(C)c2)(C4)C3)cc(C)c1OCC1CO1 (stereo not shown) = 35
• c1cc(OCC2CO2)c(C2CCCCC2)cc1C12CC3CC(C1)CC(c1ccc(OCC4CO4)c(C4CCCCC4)c1)(C3)C2 (stereo not shown) = 46
